Listing of recorded melting point by entry.
Express it in °C; write the number only.

Tell me measured melting point for CCCCn1ccc(-c2ccc(Oc3ccnc(C)c3)cc2)c(C#N)c1=O [Compound 18] please. 121

Name the recorded melting point of the compound listed here: CCCCn1ccc(-c2cc(F)c(Oc3ccnc(C)c3)c(F)c2)c(C#N)c1=O [Compound 15] 172.2

----------
- Tested system: human mGluR2 receptor (Homo sapiens, UniProt Q14416)
- Construct: expressed in transfected cells; host or cells: CHO cells (membrane preparation)
- Sequence (Q14416 19-872): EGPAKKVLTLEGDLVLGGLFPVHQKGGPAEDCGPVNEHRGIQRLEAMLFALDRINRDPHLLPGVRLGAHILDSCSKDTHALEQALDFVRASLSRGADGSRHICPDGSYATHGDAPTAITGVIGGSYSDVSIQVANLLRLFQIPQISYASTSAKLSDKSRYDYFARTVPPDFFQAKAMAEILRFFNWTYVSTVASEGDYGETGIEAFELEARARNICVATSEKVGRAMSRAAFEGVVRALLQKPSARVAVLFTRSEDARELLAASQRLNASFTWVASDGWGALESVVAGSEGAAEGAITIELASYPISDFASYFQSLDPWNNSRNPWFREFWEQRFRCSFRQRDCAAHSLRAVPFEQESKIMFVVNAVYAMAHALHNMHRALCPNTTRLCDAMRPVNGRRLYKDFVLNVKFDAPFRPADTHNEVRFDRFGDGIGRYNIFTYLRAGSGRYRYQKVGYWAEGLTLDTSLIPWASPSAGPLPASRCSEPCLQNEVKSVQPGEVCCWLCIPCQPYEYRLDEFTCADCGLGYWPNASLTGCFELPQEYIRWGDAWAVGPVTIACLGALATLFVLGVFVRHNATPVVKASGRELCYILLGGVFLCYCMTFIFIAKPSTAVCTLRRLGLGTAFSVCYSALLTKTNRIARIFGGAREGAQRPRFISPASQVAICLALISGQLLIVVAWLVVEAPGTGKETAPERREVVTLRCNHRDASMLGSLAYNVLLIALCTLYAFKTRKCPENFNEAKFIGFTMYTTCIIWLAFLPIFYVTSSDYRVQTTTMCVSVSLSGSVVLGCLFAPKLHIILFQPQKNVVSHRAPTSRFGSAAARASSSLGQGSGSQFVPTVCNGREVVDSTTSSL
- Assay overview: [35S]GTPγS binding assay (GTPγS-PAM), membranes from CHO cells transfected with human mGluR2
- Type: biochemical
- Condition info: positive allosteric modulation in presence of glutamate at predetermined EC25 concentration; averages of duplicate values of 11-concentration response curves; pEC50 = -logEC50; error about 0.3 log-units; read-out: GTPgS - hR2 PAM pEC50 (converted)
Sorting guide: entries reporting EC50 beneath 400 nM go in the MET pile, the rest go in the NOT MET pile.

// known answers, use as guide
>>> class_name("Cc1cc(C)nc(Oc2ccc(-c3ccn(CC4CC4)c(=O)c3C#N)c(F)c2)c1")
"NOT MET"
>>> class_name("Cc1ncccc1Oc1ccc(-c2ccn(CCC3CC3)c(=O)c2C#N)cc1F")
"MET"
>>> class_name("Cc1nccc(Oc2ccc(-c3ccn(CC4CC4)c(=O)c3C#N)cc2F)c1C")
"NOT MET"
>>> class_name("Cc1cc(Oc2ccc(-c3ccn(CCC4CC4)c(=O)c3C#N)c(F)c2)ccn1")
"NOT MET"
>>> class_name("CCCCn1ccc(-c2ccc(Oc3ccnc(C)c3)c(F)c2)c(C#N)c1=O")
"NOT MET"

Criterion: EC50 strictly below 400 nM. Is it met by Cc1ccc(Oc2ccc(-c3ccn(CC4CC4)c(=O)c3C#N)cc2F)c(C)n1 ? NOT MET

Item CCCCn1ccc(-c2ccc(Oc3cc(C)nc(C)c3)cc2F)c(C#N)c1=O : EC50 beneath 400 nM, strictly? NOT MET

Take the compound CCCCn1ccc(-c2ccc(Oc3ccc(C)nc3C)c(F)c2)c(C#N)c1=O and say whether its EC50 is less than 400 nM. MET

Find out if reported EC50 for Cc1cc(Oc2ccc(-c3ccn(CC4CC4)c(=O)c3C#N)c(F)c2)cc(C)n1 is less than 400 nM NOT MET

Does CCCCn1ccc(-c2ccc(Oc3cc(C)nc(C)c3)c(F)c2)c(C#N)c1=O have EC50 strictly under 400 nM? MET

# TODO verify EC50 < 400 nM strictly for this compound: CCCCn1ccc(-c2ccc(Oc3cccnc3C)cc2)c(C#N)c1=O NOT MET

Quick check: EC50 of CCCCn1ccc(-c2ccc(Oc3cccnc3C)c(F)c2)c(C#N)c1=O under 400 nM? NOT MET

Consider the compound CCCCn1ccc(-c2ccc(Oc3cc(C)ccn3)cc2)c(C#N)c1=O . Is its EC50 strictly less than 400 nM? NOT MET

Hi there! Is EC50 for Cc1cc(Oc2ccc(-c3ccn(CC4CC4)c(=O)c3C#N)cc2F)cc(C)n1 below 400 nM, do you know? NOT MET

For N#Cc1c(-c2ccc(Oc3ccnc(Cl)c3)cc2)ccn(CC2CC2)c1=O , is the recorded EC50 below the cut-off of 400 nM? MET

Please check: EC50 for CCCCn1ccc(-c2cc(F)c(Oc3ccnc(C)c3)c(F)c2)c(C#N)c1=O , strictly under 400 nM or not? NOT MET

Confirm or reject: EC50 of CCCCn1ccc(-c2ccc(Oc3ccncc3Cl)cc2)c(C#N)c1=O lies strictly below 400 nM NOT MET
